I'd appreciate it if you could supply apparent KD of MS2 coat protein values for the items below.
system: MS2 coat protein; assay: apparent KD of MS2 coat protein, switch ON state; designed switch direction (-1 OFF switch, 1 ON switch): -1; higher = weaker reporter binding; details: FMN input: 0 or 200 uM; Eterna round: R93 (includes R88 designs)
Number first, unit second.

Give its apparent KD of MS2 coat protein value. Item: AGAGACAGAGGAUAUACAUGAGGAUCACCCAUGUAAAAGAAAGAAAAGGGAAAGAAAAGUAGAAGGCUGAGAGA [Ruby 66] 23.6 nM

Same question for AAAAUACAUGAGGAUCACCCAUGUGAGGAUAUUAGAAAGGGAAUAAAAUAACCCAAACUAAGAAGGCACAAAAA [Ex 1 May 27] please. 28.5 nM

Queued: AAAAAACAUGAGGAUCACCCAUGUGAGGAUAUGAAAAUACUAAGACAACAGUAAUCAAUCAGAAGGCACAACAA [JR_Exc--1_Sub1209] 20.1 nM

Try CCCUCACAUGAGGAUCACCCAUGUUAGGAUAUCUACCAGGAGCCUAAAAUGGCCCAACGGAGAAGGAACGUGCA [Arbire] next. 19.2 nM

Entry to check: AAGAACUGAGGAUAUACAUGAGGAUCACCCAUGUAAAAGAAAGAAGGGAAAGAGAAAAGUAGAAGGCAGAAGAA [Inamunnifnebu] 20.6 nM

Now the sequence AGCUAGUCAGGAUAUACGAACAAGUCAAAAGACGAGAACGGACAUGAGGAUCACCCAUGUAGAAGGGACUAGCA [Diamond 7] 16.1 nM

Do the same for AAGAAGCUAGGAUAUACAUGAAAGAAAGAAAAGAAAAGAAAACAUGAGGAUCACCCAUGUAGAAGGAGCUAGAA [EteRNA is fun!] please 33.1 nM

What do you have for AACUGACAUGAGGAUCACCCAUGUCAGGAUAUGCUUCAUAAAAAAAAAAAAAAAUGAUGCAGAAGGGACAUGGA [Design 29 :P Sub-opt 5] ? 20 nM

And then AACAAGUGAGGAUAUUGGAAAAGUAAAUAAGUAAAACAAAACAAGAAGGCACAUGAGGAUCACCCAUGUAAAUA [JR_Exc004_Sub017] , what is it? 21.9 nM

Subsequent entry: AGGAAACAUGAGGAUCACCCAUGUGAGGAUAUGAACGAAAAUAAAUAAAAAUAAAAGUUCAGAAGGUACAAAAA [66%, Wbt, 5] 23.6 nM

Cool, now AAAAAUGGAGGAUAUACAUGAGGAUCACCCAUGUGUGACUAUACUAAGCGCUCUUCAGGUAGAAGGCCAAAAAA [Gilly Gone Silly 17 - Jieux - Exclusion 3] 43.8 nM

Now give it for AGCUAGAGAGGAUAUACGUGAGUGAUAAAAGUCUGAUAACUACAUGAGGAUCACCCAUGUAGAAGGCUCUAGCA [Ex2 Design 166: Sub-opt 30] too. 69.1 nM

Next sequence: UCCGGACAUGAGGAUCACCCAUGUGAGGAUAUAUAAAGUGGGACUAGAAACAGUCCCAAUAGAAGGCACAUGAC [Esarbiorar] 22 nM

Next entry: AACAGGUUAGGAUAUAUCCAACAAAUAAAAAAAAUAUAAGGAUAGAAGGAACAUGAGGAUCACCCAUGUUAACA [May 30] 20.8 nM

Check AAGAGACAUGAGGAUCACCCAUGUGAGGAUAUGACGUAAAUAAAGAAAGAAGAAAUCGUCAGAAGGCACACCAA [55%, Disencluded 2, 4] too. 48.4 nM
